molecular target: P70S6K (Homo sapiens (Human), UniProt P23443, T412E); experiment: P70S6K Enzyme Assay; conditions: P70S6K T412E mutant, 24 μM ATP, mobility shift (Caliper)
Sequence (P23443 1-421 T412E): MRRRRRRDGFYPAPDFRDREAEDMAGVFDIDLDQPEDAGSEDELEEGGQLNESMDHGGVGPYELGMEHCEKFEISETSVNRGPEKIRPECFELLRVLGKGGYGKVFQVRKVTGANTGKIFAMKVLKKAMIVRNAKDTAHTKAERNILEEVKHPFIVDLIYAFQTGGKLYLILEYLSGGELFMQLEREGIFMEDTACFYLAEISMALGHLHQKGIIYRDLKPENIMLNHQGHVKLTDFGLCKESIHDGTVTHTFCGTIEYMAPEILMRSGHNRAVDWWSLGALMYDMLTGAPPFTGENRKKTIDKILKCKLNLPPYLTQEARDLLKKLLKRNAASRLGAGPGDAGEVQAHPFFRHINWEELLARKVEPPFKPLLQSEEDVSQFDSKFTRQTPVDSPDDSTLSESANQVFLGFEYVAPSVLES
measured parameter: pIC50
The quantity pIC50 is defined as the negative base-10 logarithm of the molar concentration.

IN: What value of measured pIC50 is listed for NC(=O)c1ccc(NC2CNCCC2c2ccccc2)c2cncnc12 (racemic) ?
OUT: 8.39

Further cases:
IN: What value of measured pIC50 is listed for NC(=O)c1ccc(NC2CNCCC2c2ccc(F)c(Cl)c2)c2cncnc12 (stereo not drawn) ?
OUT: 7.48

====

Record type: IC50 measurement. Applies to: AKT (Homo sapiens (Human), UniProt P31749)
Kindly answer with a numeric value in µM, unit omitted.

Sample answers from the record:
IN: What value of measured IC50 is listed for NC(=O)c1ccc(NCc2cccc(Cl)c2)c2cncnc12 [Example 63] ?
OUT: 12

IN: Okay, and Cc1cccc(C2CCNCC2Nc2ccc(C(N)=O)c3ncncc23)c1 (centres unmarked) [Example 73] ?
OUT: 9

IN: Okay, and Cc1cccc([C@@H]2CN(c3ccc(C(N)=O)c4ncncc34)C[C@H]2CO)c1 [Example 67] ?
OUT: 8.2

IN: Okay, and NC(=O)c1ccc(NCC(c2ccccc2)N2CCNCC2)c2cncnc12 (racemic) [Example 69] ?
OUT: 10

IN: Okay, and CNCC1CCCN(c2ccc(C(N)=O)c3ncncc23)C1 (racemic) [Example 59] ?
OUT: 18

Further cases:
IN: What value of measured IC50 is listed for CN(CCc1ccccc1)c1ccc(C(N)=O)c2ncncc12 [Example 103] ?
OUT: 14

IN: Okay, and NC(=O)c1ccc(N[C@@H]2CNCC[C@H]2c2ccc(F)c(Cl)c2)c2cncnc12 (single isomer, unassigned) [Example 78] ?
OUT: 5.7
